test: Aqueous solubility in PBS pH 7.4 incubated for 24 hrs by nephelometry; assay type: physicochemical
solubility kinetic at 24 h below 70 µM gives Not fulfilled; solubility kinetic at 24 h at or above it gives Fulfilled.

[
  {
    "Smiles Repr": "Cc1[nH]c2ccccc2c1CCNC(=O)c1ccc(N2CCOCC2)nc1",
    "Group": "Fulfilled"
  },
  {
    "Smiles Repr": "Cc1[nH]c2ccccc2c1CCNC(=O)c1cnc(Nc2ccncc2)nc1",
    "Group": "Not fulfilled"
  },
  {
    "Smiles Repr": "Cc1cc(C)nc(Nc2ncc(C(=O)NCCc3c(C(F)(F)F)[nH]c4ccccc34)cn2)c1",
    "Group": "Not fulfilled"
  },
  {
    "Smiles Repr": "Cc1ccc(Nc2ncc(C(=O)NCCc3c(C)[nH]c4ccccc34)cn2)c(C)n1",
    "Group": "Fulfilled"
  }
]

Record Cc1ccnc(Nc2ncc(C(=O)NCCc3c(C)[nH]c4ccccc34)cn2)c1 ; criterion: solubility kinetic at 24 h no lower than 70 µM. Met?
Not fulfilled

* * *

experiment: Solubility of compound at 2 mg/ml incubated for 24 hrs by shake flask thermodynamic solubility method based HPLC analysis; format: physicochemical
Measurement Label: solubility thermodynamic at 24 h
Include the unit after the number when you answer.

Query Cc1cc(C)nc(Nc2ncc(C(=O)NCCc3c(C(F)(F)F)[nH]c4ccccc34)cn2)c1.Cl yields solubility thermodynamic at 24 h of 700 µM

Data provenance: ChEMBL document CHEMBL4321875
